Assay: Antioxidant activity against cupric ion-induced lipid peroxidation in human LDL by TBA assay
Assay type: functional
pIC50: −log10 of the molar value.
Label yes (1) when pIC50 >= 5; otherwise no (0).

Use the examples below as a reference point.
In [3]: df
Out[3]:
                                   molecule  label_value
0  OC[C@H]1O[C@@H](Oc2cc(O)cc(/C=C\c3ccc(O)c(O)c3)c2)[C@H](O)[C@@H](O)[C@@H]1O [Z-ASTRINGIN]      yes (1)
1  OC[C@H]1O[C@@H](Oc2ccc(/C=C\c3cc(O)cc(O)c3)cc2O)[C@H](O)[C@@H](O)[C@@H]1O [Z-RESVERATROLOSIDE]       no (0)

hey, is pIC50 for this one >= 5? Cc1c(C)c2c(c(C)c1O)CCC(C)(C(=O)O)O2 (configuration not stated) [TROLOX]
yes (1)

Is reported pIC50 greater than or equal to 5 here: OC[C@H]1O[C@@H](Oc2cc(O)cc(/C=C\c3ccc(O)cc3)c2)[C@H](O)[C@@H](O)[C@@H]1O [Z-PICEID]
no (0)

Kindly determine if pIC50 recorded for OC[C@H]1O[C@@H](Oc2ccc(/C=C/c3cc(O)cc(O)c3)cc2O)[C@H](O)[C@@H](O)[C@@H]1O [E-RESVERATROLOSIDE] is above or exactly 5.
no (0)

Decide: pIC50 of `OC[C@H]1O[C@@H](Oc2cc(O)cc(/C=C/c3ccc(O)c(O)c3)c2)[C@H](O)[C@@H](O)[C@@H]1O` >= 5?
yes (1)

Say whether OC[C@H]1O[C@@H](Oc2cc(O)cc(/C=C/c3ccc(O)cc3)c2)[C@H](O)[C@@H](O)[C@@H]1O [PICEID] shows pIC50 of 5 or more.
no (0)
